These measurements were taken from patent US20230286968A1.

Can you tell me CC50 at 144 h for the items I'm about to list?
experiment: Cytotoxicity in PHH natural infection assay (Cell Counting Kit-8); format: cell-based; settings: HBV-infected primary human hepatocytes, CCK8

>>> df
                                   compound    result
0  O=C(NC1CC2(C1)CC(c1nc3cc(Cl)ccc3o1)C2)C1CC(C(F)(F)F)C1 (centres unmarked)  > 100 µM
1  CN1C(=O)CCC1CC(=O)NC1CC2(C1)CC(c1nc3cc(Cl)ccc3o1)C2 (centres unmarked)   > 10 µM
2  O=C(NC1CC2(C1)CC(c1nc3cc(Cl)ccc3o1)C2)N1CCCC1 (centres unmarked)   92.1 µM
3  CCN(C)C(=O)NC1CC2(C1)CC(c1nc3cc(Cl)ccc3o1)C2 (centres unmarked)  > 100 µM
4  Cc1ccc(S(=O)(=O)N2CCC(CC(=O)NC3CC4(C3)CC(c3nc5cc(Cl)ccc5o3)C4)C2)cc1 (centres unmarked)   > 10 µM

Give CC50 at 144 h for all compounds that follow.
1. CC(C)NC(=O)NC1CC2(C1)CC(c1nc3cc(Cl)ccc3o1)C2 (centres unmarked)
2. O=C(NCC1CCOC1)NC1CC2(C1)CC(c1nc3cc(Cl)ccc3o1)C2 (centres unmarked)
3. CC(C)N(C)c1cc(C(=O)NC2CC3(C2)CC(c2nc4cc(Cl)ccc4o2)C3)ccn1 (centres unmarked)

Outgoing:
1: > 100 µM; 2: > 100 µM; 3: > 10 µM
